meta.source: ChEMBL document CHEMBL5042524

assay: MRT(0 to t) in Sprague-Dawley rat at 10 mg/kg, po measured upto 48 hrs by LC-MS/MS analysis; type: ADME, organism-based; conditions: in vivo
measured.property: MRT last at 48 h (h)
Answers are plain numbers, in h.

Value of MRT last at 48 h reported for the compound COc1ccc(-c2ncc(C(=O)NCCCCCCC(=O)NO)s2)c(OC)c1 is 7.4

----------
test: Cmax in Sprague-Dawley rat at 2 mg/kg, iv measured upto 48 hrs by LC-MS/MS analysis; type: ADME, organism-based; parameters: route intravenous, dose 2 mg/kg, time <=48; settings: in vivo
measured.property: Cmax (ng/mL)
Give bare numbers, in ng/mL.

Value of Cmax reported for the compound COc1ccc(-c2ncc(C(=O)NCCCCCCC(=O)NO)s2)c(OC)c1 is 875
